Exercise: state measured EC50 (read off the curve): STAT5 phosphorylation in HH cells for each of the binders provided.
- subject_of_test: T1, human intermediate-affinity IL-2 receptor IL-2Rβγ on cells (human, UniProt P14784 27-551; P31785 23-369)
- T1 sequence (looked up) 1: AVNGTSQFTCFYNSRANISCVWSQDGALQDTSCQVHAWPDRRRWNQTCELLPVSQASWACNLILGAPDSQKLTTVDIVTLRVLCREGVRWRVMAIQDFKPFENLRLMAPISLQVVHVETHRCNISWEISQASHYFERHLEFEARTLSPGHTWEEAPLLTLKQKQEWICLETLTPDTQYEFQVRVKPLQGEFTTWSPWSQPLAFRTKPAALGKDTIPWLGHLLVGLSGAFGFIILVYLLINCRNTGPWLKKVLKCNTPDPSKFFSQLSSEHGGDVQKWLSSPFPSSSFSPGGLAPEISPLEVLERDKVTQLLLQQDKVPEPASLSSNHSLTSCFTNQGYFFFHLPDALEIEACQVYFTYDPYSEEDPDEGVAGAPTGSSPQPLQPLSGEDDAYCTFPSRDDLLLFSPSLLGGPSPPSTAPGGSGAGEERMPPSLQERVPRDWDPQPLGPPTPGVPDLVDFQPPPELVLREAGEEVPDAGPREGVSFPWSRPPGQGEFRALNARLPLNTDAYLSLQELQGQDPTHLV
- T1 sequence (looked up) 2: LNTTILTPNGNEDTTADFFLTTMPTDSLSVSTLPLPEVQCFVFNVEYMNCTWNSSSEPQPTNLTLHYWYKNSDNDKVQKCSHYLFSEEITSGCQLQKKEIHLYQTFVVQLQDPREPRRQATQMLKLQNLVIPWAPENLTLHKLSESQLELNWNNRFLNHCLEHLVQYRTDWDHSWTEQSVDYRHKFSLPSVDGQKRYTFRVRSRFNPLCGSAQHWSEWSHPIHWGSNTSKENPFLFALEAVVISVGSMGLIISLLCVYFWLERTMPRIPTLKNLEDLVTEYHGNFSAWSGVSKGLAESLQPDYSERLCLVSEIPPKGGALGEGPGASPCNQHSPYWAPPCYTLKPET
- assay_summary: cell-based or functional assay

Request the reported EC50 (read off the curve): STAT5 phosphorylation in HH cells associated with CP-trIL-2 021 (ligand) LRPRDLISNINVIVLELKGSETTELKHLQSLEEELKPLEEVLNLAQSKNFHTIVEFLNRWITFSQSIISTLTGGGGSGGGGSPTSSSTKKTQLQLEHLLLDLQMILNGIN
~30 nM

Any idea what EC50 (read off the curve): STAT5 phosphorylation in HH cells was measured for CP-trIL-2 011 (ligand) PTSSSTKKTQLQLEHLLLDLQMILNGINNYKNPLRPRDLISNINVIVLELKGSETTELKHLQSLEEELKPLEEVLNLAQSKNFHTIVEFLNRWITFSQSIISTLT ?
~6 nM

Which EC50 (read off the curve): STAT5 phosphorylation in HH cells value belongs to CP-trIL-2 012 (ligand, H1-H3-H2-H4; loops 1 and 2 removed; de-Ala1, C58S, C125S, P65D) PTSSSTKKTQLQLEHLLLDLQMILNGINNYKNPLRPRDLISNINVIVLELKGSETTELKHLQSLEEELKDLEEVLNLAQSKNFHTIVEFLNRWITFSQSIISTLT ?
~6 nM

What EC50 (read off the curve): STAT5 phosphorylation in HH cells value was documented for this binder, CP-trIL-2 022 (ligand) LRPRDLISNINVIVLELKGSETTELKHLQSLEEELKDLEEVLNLAQSKNFHTIVEFLNRWITFSQSIISTLTGGGGSGGGGSPTSSSTKKTQLQLEHLLLDLQMILNGIN ?
~20 nM

Reference for the values: patent US20250163117A1
